Molecular target: T1, wild-type human p35 polypeptide (human, UniProt P29459 23-219)
T1 construct: Secreted from COS-7 or 293 cells co-transfected with a p40 nucleic acid; also called wt-p35
T1 chain: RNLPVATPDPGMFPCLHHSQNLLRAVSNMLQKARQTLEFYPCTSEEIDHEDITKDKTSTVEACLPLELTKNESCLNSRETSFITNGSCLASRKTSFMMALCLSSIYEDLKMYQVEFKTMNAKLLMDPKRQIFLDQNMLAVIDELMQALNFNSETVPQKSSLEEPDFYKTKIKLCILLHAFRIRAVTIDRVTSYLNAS
Assay: immunoblot with anti-p35 mAB of COS-7 culture medium; ~70 kDa p40/p35 heterodimer band (FIG. 7)
assay_readout: binding result

>>> reported_result("modified p40 polypeptide C2-22 (ligand, Recombinant (shuffled) p40 variant; the mature region is stated as residues 23-324; also called p40C2-22) IWELKKDVYVVELDWYPNAPGETVVLTCDTPEEDGITWTSDQSSEVLGTGKTLTIHVKEFGDAGQYTCRKGGEALSRSLLLLHKKEDGIWSTDILKDQKEPKNKSFLKCEAKNYSGRFTCWWLTTISTDLKFSVKSSRGSTDPRGVTCGTATLSEDLGEYKKYRVECQEGSACPAAEESLPIEVVLEAVHKLKYENYTSSFFIRDIIKPDPPKNLQLKPLKNSRHVEVSWGYPDTWSTPHSYFSLTFCIQVQGKSKREKKDRIFTDKTSATVICRKNAKIRVQARDRYYSSFWSEWASVSCS")
"binds"

This collection of values is drawn from patent US20060264615A1.
